# target or system: T1, mEphA7 (mouse, UniProt Q61772)
# T1 construct: part of an Fc fusion; also called rmuEphA7-Fc
# T1 sequence (receptor-Fc fusion, looked up): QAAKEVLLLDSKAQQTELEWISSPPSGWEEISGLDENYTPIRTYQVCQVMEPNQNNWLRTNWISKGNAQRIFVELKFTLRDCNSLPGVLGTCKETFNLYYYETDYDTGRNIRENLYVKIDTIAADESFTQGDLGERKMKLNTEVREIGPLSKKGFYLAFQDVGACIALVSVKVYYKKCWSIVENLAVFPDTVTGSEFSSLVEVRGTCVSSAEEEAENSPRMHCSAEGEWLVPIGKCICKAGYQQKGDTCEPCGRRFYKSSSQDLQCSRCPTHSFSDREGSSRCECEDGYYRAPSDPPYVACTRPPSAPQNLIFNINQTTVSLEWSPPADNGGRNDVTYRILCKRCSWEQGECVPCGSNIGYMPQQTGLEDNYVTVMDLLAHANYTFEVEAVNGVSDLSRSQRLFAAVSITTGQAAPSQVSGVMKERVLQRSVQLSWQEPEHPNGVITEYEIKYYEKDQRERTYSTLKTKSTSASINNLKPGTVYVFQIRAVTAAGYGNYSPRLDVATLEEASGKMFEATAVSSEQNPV
# assay protocol: ELISA, receptor coated on the plate, purified IgG, anti-human kappa-HRP
# Experimental: Secondary screening of IgG constructs of affinity optimized combinatorial variants with additional EphA receptors: With purified IgG constructs of the nine combinatorial variants, additional secondary screening assays were performed using the Activity ELISA (see above) and recombinant EphA receptor proteins. […] HRP activity was detected with TMB substrate and the reaction quenched with 0.2 M H₂SO₄. Plates were read at 450 nm. […]
measured parameter: binding result

binder="1G11 IgG1 (affinity optimized combinatorial variant of mAb GEA44 in human IgG1 format) (antibody, V domains shown) VH: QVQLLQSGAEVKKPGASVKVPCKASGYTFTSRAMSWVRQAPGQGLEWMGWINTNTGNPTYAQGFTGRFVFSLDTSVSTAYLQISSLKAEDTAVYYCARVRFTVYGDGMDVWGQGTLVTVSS VL: EIVLTQSPATLSVSPGERATLSCRASQSVSSNLPWYQQKPGQAPRLLIYGASTRPTGIPDRFSASGSGTDFTLTISRVEPEDFAVYYCQQYGPSWTFGQGTKVEIK" measured_parameter="binding result" result=binds
binder="6B7 IgG1 (affinity optimized combinatorial variant of mAb GEA44 in human IgG1 format) (antibody, V domains shown) VH: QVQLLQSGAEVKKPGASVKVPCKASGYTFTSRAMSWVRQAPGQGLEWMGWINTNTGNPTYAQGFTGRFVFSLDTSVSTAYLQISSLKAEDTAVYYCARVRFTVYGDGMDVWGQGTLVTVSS VL: EIVLTQSPATLSVSPGERATLSCRASQSVSSNPAWYQQKPGQAPRLLIYGASTRATGIPDRFSASGSGTDFTLTISRVEPEDFAVYYCQQYGPSWTFGQGTKVEIK" measured_parameter="binding result" result=binds
binder="1D11 IgG1 (affinity optimized combinatorial variant of mAb GEA44 in human IgG1 format) (antibody, V domains shown) VH: QVQLLQSGAEVKKPGASVKVPCKASGYTFTSRAMSWVRQAPGQGLEWMGWINTNTGNPTYAQGFTGRFVFSLDTSVSTAYLQISSLKAEDTAVYYCARVRTTVYGDNMDVWGQGTLVTVSS VL: EIVLTQSPATLSVSPGERATLSCRASQSVSSNLPWYQQKPGQAPRLLIYGASTRATGIPDRFSASGSGTDFTLTISRVEPEDFAVYYCQQYGPSWTFGQGTKVEIK" measured_parameter="binding result" result=binds
